Listing of entries alongside the reported pIC50.
system: L1210; test: Activity against lymphocytic murine leukemia cell line L1210 using MTS/PES microculture tetrazolium assay; format: functional, cell-based; conditions: Mus musculus
Please note pIC50 is a logarithmic value: minus log10 of concentration in mol/L. Answer with that number alone.

Query: Which pIC50 is reported for this molecule? COc1cc(O)c(/C=N/NC(=O)NO)c(OC)c1
Response: 4.04

Query: Given the entry O=C(NO)N/N=C/c1ccc([N+](=O)[O-])s1 , report its measured pIC50.
Response: 4.97

Query: Query (molecule): COc1ccc(/C=N/NC(=O)NO)c(O)c1 ; field requested: pIC50
Response: 4.22

Query: Given the molecule O=C(NO)N/N=C/c1cc(I)cc(I)c1O , what is its reported pIC50?
Response: 5.33

Query: Item COc1cccc(/C=N/NC(=O)NO)c1 has what recorded pIC50?
Response: 3.43

Query: Which pIC50 is reported for this molecule? CN(C)c1ccc(/C=N/NC(=O)NO)cc1
Response: 3.35

Query: Data request, read-out pIC50, for O=C(NO)N/N=C/c1cccnc1
Response: 3.22

Query: What value of measured pIC50 is listed for O=C(NO)N/N=C/c1ccc2c(c1)OCCO2 ?
Response: 3.75

Query: Item O=C(NO)N/N=C/c1cc(Br)cc(Br)c1O has what recorded pIC50?
Response: 5.14

Query: Could you tell me which pIC50 is on file for Cc1cccc(/C=N/NC(=O)NO)n1 ?
Response: 3.05

Query: Name the recorded pIC50 for O=C(NO)N/N=C/c1cc(Br)ccc1O .
Response: 5.00

Query: Entry O=C(NO)N/N=C/c1c2ccccc2c(Cl)c2ccccc12 : reported pIC50 = ?
Response: 5.27

Query: # input molecule: O=C(NO)N/N=C/c1ccc(O)cc1O ; wanted: its pIC50
Response: 3.88
